Data credit: ChEMBL document CHEMBL1151742

List of pKi tested on UniProt P47211.
Sequence (P47211 whole entry): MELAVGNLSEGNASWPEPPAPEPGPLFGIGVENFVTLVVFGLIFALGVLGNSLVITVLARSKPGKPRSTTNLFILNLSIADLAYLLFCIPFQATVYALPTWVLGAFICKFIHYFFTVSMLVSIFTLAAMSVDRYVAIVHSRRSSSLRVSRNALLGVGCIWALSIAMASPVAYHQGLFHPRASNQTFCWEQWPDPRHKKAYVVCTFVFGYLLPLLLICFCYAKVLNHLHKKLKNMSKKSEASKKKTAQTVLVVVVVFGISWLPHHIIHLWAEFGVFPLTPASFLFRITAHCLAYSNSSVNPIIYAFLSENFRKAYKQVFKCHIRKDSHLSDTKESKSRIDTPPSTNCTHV
Please express pKi as -log10 of the molar concentration.

CCCCCCCCCCCCCCCC(=O)NCCCC[C@H](NC(=O)[C@H](CCCCN)NC(=O)[C@H](CCCCN)NC(=O)[C@H](CC(C)C)NC(=O)[C@H](CC(C)C)NC(=O)[C@H](Cc1ccc(O)cc1)NC(=O)CNC(=O)[C@H](C)NC(=O)[C@H](CO)NC(=O)[C@H](CC(N)=O)NC(=O)[C@H](CC(C)C)NC(=O)[C@@H](NC(=O)[C@H](Cc1c[nH]c2ccccc12)NC(=O)CNC)[C@@H](C)O)C(=O)N[C@@H](CCCCN)C(N)=O	6.51
CCCCCCCCCCCCCCCC(=O)NCCCC[C@H](NC(=O)[C@H](CCCCN)NC(=O)[C@H](CCCCN)NC(=O)CNC(=O)[C@H](CC(C)C)NC(=O)[C@H](CC(C)C)NC(=O)[C@H](Cc1ccc(O)cc1)NC(=O)CNC(=O)[C@H](C)NC(=O)[C@H](CO)NC(=O)[C@H](CC(N)=O)NC(=O)[C@H](CC(C)C)NC(=O)[C@@H](NC(=O)[C@H](Cc1c[nH]c2ccccc12)NC(=O)CNC)[C@@H](C)O)C(=O)N[C@@H](CCCCN)C(N)=O	7.59

Consider the additional molecule presented here.
Record CCCCCCCCCCCCCCCC(=O)NCCCC[C@H](NC(=O)[C@H](CCCCN)NC(=O)[C@H](CCCCN)NC(=O)[C@@H]1CCCN1C(=O)CNC(=O)[C@H](CC(C)C)NC(=O)[C@H](CC(C)C)NC(=O)[C@H](Cc1ccc(O)cc1)NC(=O)CNC(=O)[C@H](C)NC(=O)[C@H](CO)NC(=O)[C@H](CC(N)=O)NC(=O)[C@H](CC(C)C)NC(=O)[C@@H](NC(=O)[C@H](Cc1c[nH]c2ccccc12)NC(=O)CCCCCN)[C@@H](C)O)C(=O)N[C@@H](CCCCN)C(N)=O ; system UniProt P47211; pKi = 7.67
